# target or system: Beta-secretase 1 (Homo sapiens, UniProt P56817)
# Sequence (P56817 whole entry): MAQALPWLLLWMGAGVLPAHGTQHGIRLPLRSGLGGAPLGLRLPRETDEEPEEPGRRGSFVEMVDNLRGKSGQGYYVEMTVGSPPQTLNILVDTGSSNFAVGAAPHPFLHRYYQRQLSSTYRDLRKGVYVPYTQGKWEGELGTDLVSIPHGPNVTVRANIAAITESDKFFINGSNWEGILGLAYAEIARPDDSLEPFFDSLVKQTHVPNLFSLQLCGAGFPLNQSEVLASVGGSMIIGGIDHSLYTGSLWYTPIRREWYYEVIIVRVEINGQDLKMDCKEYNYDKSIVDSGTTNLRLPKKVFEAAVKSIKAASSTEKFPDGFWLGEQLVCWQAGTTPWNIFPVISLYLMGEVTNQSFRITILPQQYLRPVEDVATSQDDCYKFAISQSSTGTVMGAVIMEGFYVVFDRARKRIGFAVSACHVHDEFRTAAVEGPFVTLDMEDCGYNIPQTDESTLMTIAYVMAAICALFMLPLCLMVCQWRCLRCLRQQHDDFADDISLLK
# assay text: Inhibition of human recombinant BACE1 using [acetyl-C(W8044Eu)-EVNLDAEFK-QSY7] as substrate by TR-FRET assay
# cond: read-out: IC50
Below: a set of entries, each annotated with reported IC50.
Give a bare numeral; the unit µM is implied.

CC(C)(C)OC(=O)N(Cc1ccccc1)C[C@H](O)c1ccc(C(=O)c2ccccc2)c(NC(=O)[C@@H](NC(=O)OCc2ccccc2)c2ccccc2)c1 ... 14.9
CC(C)(C)OC(=O)N(Cc1ccccc1)C[C@@H](O)c1cccc(NC(=O)[C@H](NC(=O)OCc2ccccc2)c2ccccc2)c1 ... 4.7
CC(C)(C)OC(=O)N1CCN(c2ccc(-c3ccccc3)c(C=O)c2NC(=O)[C@@H](NC(=O)OCC2c3ccccc3-c3ccccc32)c2ccccc2)CC1 ... 14.8

Consider now this further compound.
Lab note: need IC50 for "CC(C)(C)OC(=O)N(C[C@H](O)c1cccc(NC(=O)[C@@H](NC(=O)OCc2ccccc2)c2ccccc2)c1)[C@H](CO)Cc1ccccc1" on Beta-secretase 1 (Homo sapiens, UniProt P56817), anyone have it? 6.4
